# protocol_summary: solvent given as SMILES
# condition_description: in CCCCCC
Listed below: absorption maximum values for each entry.
A complete answer gives the number and then names the unit.

CCCCCCCCN1c2ccc(C#Cc3cc(C(F)(F)F)cc(C(F)(F)F)c3)cc2Sc2cc(C=O)ccc21 : 372 nm
COc1ccc(C#Cc2ccc(C#N)cc2)cc1OC : 343 nm
Cc1c2ccccc2c(C2=C3C=CC=[N+]3[B-](F)(F)n3cccc32)c2ccccc12 : 504 nm
COC1(OC)C2(Cl)c3nc4cc(-c5cccs5)ccc4nc3C1(Cl)C1C[C@H]3[C@@H](CC12)C1(Cl)c2nc4cc(-c5cccs5)ccc4nc2C3(Cl)C1(OC)OC (some centres not stated) : 358 nm
CCCCc1ccc2ccc3c(CCCC)cc(CCCC)c4ccc1c2c34 : 352 nm

Enquiry: Reported absorption maximum for Cc1ccc(-n2c(-c3ccc(C(F)(F)F)cc3)nc(-c3ccccc3O)c2-c2ccccc2O)cc1 : what is it?
Return: 314 nm

Enquiry: Reported absorption maximum for COc1ccc2c(c1)N(c1ccccc1-c1ccccc1)c1cc3c(cc1=N2)Oc1c(cc(C(C)(C)C)cc1C(C)(C)C)N=3 : what is it?
Return: 559 nm

====

Listed below: absorption maximum values for each entry.
# protocol_summary: solvent given as SMILES
# condition_description: in CS(C)=O
Note: unit nm is implicit; provide only the numeric part.

# count of solved cases: 4
CN(C)c1ccc2cc(C3=[O+][B-](F)(F)OC(c4ccc(C#N)cc4)=C3)ccc2c1 : 559
COC(=O)C(Cc1ccc2oc(-c3ccc(-n4c5ccccc5c5ccccc54)cc3)nc2c1)NC(=O)OC(C)(C)C (centres undefined) : 343.6
COc1ccc(/C=C/C2=CC(/C=C/c3ccc(OC)cc3)=[O+][B-](OC(C)=O)(OC(C)=O)O2)cc1 : 468
CCCCCCCCN1c2ccc(C#Cc3ccc(F)cc3)cc2Sc2cc(C=O)ccc21 : 388

Enquiry: Reported absorption maximum for CCOC(=O)/C(C#N)=C\c1cn(-c2ccccc2)nc1-c1ccccc1 : what is it?
Return: 349

Enquiry: Reported absorption maximum for COc1ccc(-c2c3nc(cc4ccc([nH]4)c(-c4ccc(OC)c(OCCCC(=O)O)c4)c4nc(cc5ccc2[nH]5)CC4)CC3)cc1OCCCC(=O)O : what is it?
Return: 736

Enquiry: Reported absorption maximum for O=C1/C(=C\c2ccc3oc4ccccc4c3c2)S(=O)(=O)c2ccccc21 : what is it?
Return: 369

Enquiry: Reported absorption maximum for CC1(C)C(/C=C/C=C/c2cc3ccc(O)cc3oc2=O)=[N+](CCCS(=O)(=O)[O-])c2ccc(S(=O)(=O)O)cc21 : what is it?
Return: 494

Enquiry: Reported absorption maximum for CN(C)c1ccc2nc(-c3ccc(C(=O)Nc4ccccc4)cc3)sc2c1 : what is it?
Return: 396

====

# protocol_summary: solvent given as SMILES
# condition_description: in ClCCl
reported_property: absorption maximum (nm)
Note: unit nm is implicit; provide only the numeric part.

Cc1csc2[n+]1[B-](F)(F)OC(c1ccc(N(C)C)cc1)=N2 : 406
CC(C)(C)c1ccc2ccc3cccc4ccc1c2c34 : 341
Cc1ccc(-c2c3nc(c(-c4ccc(C)cc4)c4ccc([nH]4)c(-c4ccc(OC(=O)C(C)c5ccc(CC(C)C)cc5)cc4)c4nc(c(-c5ccc(C)cc5)c5ccc2[nH]5)C=C4)C=C3)cc1 (centres undefined) : 649

Enquiry: Reported absorption maximum for O=c1c2cc(F)ccc2nc2n1[B-](F)(F)[n+]1ccccc1-2 : what is it?
Return: 350

Enquiry: Reported absorption maximum for CCOC(=O)c1c(-c2c(Cl)c3ccccc3oc2=O)nn(-c2ccccc2)c1C(=O)OCC : what is it?
Return: 322

Enquiry: Reported absorption maximum for O=[N+]([O-])c1ccc(O)c(-c2nc3c(c4c2-c2ccccc2CC4)-c2ccccc2CC3)c1 : what is it?
Return: 342

Enquiry: Reported absorption maximum for CN(C)c1ccc(-c2cc(-c3ccc(C#N)cc3)nn2C)cc1 : what is it?
Return: 292

Enquiry: Reported absorption maximum for C(S/C=C/c1ccc(-c2ccc(/C=C/SC=C3CCCC3)cc2)cc1)=C1CCCC1 : what is it?
Return: 352

Enquiry: Reported absorption maximum for CCCN1/C(=C\c2c(-c3ccc(N(C)C)cc3)c(=O)c2=O)C=Cc2ccccc21 : what is it?
Return: 509
